molecular target: CFTR-mediated chloride transport in human intestinal epithelial enteroid cells (Homo sapiens); assay: Membrane potential dye, Enteroid Assay A; type: cell-based; details: enteroid cells, 18-24 hours incubation, acute 10 μM forskolin and 300 nM ivacaftor; read-out: Ent. A EC50
pEC50: −log10 of the molar value.
// reported pEC50 for each item listed

Would you please look over these solved cases?
# Compound, pEC50
records = [
    ("Cc1cccc(C)c1-c1cc2nc(n1)NS(=O)(=O)c1cccc(c1)NC(=O)[C@@H]1C[C@@H](CN(CC(C3CC3)C3CC3)C1)O2 [Compound 24]", "> 6.00"),
    ("Cc1cccc(C)c1-c1cc2nc(n1)NS(=O)(=O)c1cccc(c1)NC(=O)[C@H]1CCC[C@H](C1)O2 (single isomer, unassigned) [Compound 70]", "5.52 to 6.00"),
    ("Cc1cccc(C)c1-c1cc2nc(n1)NS(=O)(=O)c1cccc(c1)NC(=O)CCCc1cccc(c1)O2 [Compound 65]", "5.52 to 6.00"),
    ("Cc1cccc(C)c1-c1cc2nc(n1)NS(=O)(=O)c1cccc(c1)NC(=O)[C@@H]1C[C@@H](CN(CC34CC(C3)C4)C1)O2 [Compound 25]", "> 6.00"),
    ("Cc1cccc(C)c1-c1cc2nc(n1)NS(=O)(=O)c1cccc(c1)NC(=O)[C@@H]1C[C@H](O2)C(=O)N(CCC(C)(C)C)C1 [Compound 90]", "4.52 to 5.52"),
]

# get_value(readout='pEC50', item= Cc1cccc(C)c1-c1cc2nc(n1)NS(=O)(=O)c1cccc(c1)NC(=O)[C@@H]1C[C@@H](CN(CCN(C)C)C1)O2 [Compound 20] )
4.52 to 5.52

====

molecular target: CFTR-mediated chloride transport in human intestinal epithelial enteroid cells (Homo sapiens, UniProt P13569); experiment: Membrane potential dye, Enteroid Assay A; type: cell-based; conditions: % of chloride transport of triple combination control (3 μM N-[(6-amino-2-pyridyl)sulfonyl]-6-(3-fluoro-5-isobutoxy-phenyl)-2-[(4S)-2,2,4-trimethylpyrrolidin-1-yl]pyridine-3-carboxamide, 3 μM tezacaftor, 300 nM acute ivacaftor)

# Compound, Ent. A Max Activity (%)
data = [
    ("O=C1Nc2cccc(c2)S(=O)(=O)Nc2nc(cc(-c3cccc4ccccc34)n2)Oc2cccc1c2 [Compound 58]", "++ (++ is 30-60%)"),
    ("Cc1cccc(C)c1-c1cc2nc(n1)NS(=O)(=O)c1cccc(c1)NC(=O)[C@@H]1C[C@@H](CN(CC3CC3)C1)O2 [Compound 30]", "++ (++ is 30-60%)"),
]

====

// reported EC50 for each item listed
biological target: F508del in NIH 3T3 cells (Homo sapiens, UniProt P13569, DEL508-508); construct: expressed in transfected cells; experiment: 3T3 assay: membrane potential optical assay for F508del correction; assay type: cell-based, mouse; details: F508del NIH 3T3 cells, compound incubation 18-24 hours at 37° C., forskolin activation; read-out: 3T3 EC50
Sequence (P13569 with tags, fused parts or gaps DEL508-508): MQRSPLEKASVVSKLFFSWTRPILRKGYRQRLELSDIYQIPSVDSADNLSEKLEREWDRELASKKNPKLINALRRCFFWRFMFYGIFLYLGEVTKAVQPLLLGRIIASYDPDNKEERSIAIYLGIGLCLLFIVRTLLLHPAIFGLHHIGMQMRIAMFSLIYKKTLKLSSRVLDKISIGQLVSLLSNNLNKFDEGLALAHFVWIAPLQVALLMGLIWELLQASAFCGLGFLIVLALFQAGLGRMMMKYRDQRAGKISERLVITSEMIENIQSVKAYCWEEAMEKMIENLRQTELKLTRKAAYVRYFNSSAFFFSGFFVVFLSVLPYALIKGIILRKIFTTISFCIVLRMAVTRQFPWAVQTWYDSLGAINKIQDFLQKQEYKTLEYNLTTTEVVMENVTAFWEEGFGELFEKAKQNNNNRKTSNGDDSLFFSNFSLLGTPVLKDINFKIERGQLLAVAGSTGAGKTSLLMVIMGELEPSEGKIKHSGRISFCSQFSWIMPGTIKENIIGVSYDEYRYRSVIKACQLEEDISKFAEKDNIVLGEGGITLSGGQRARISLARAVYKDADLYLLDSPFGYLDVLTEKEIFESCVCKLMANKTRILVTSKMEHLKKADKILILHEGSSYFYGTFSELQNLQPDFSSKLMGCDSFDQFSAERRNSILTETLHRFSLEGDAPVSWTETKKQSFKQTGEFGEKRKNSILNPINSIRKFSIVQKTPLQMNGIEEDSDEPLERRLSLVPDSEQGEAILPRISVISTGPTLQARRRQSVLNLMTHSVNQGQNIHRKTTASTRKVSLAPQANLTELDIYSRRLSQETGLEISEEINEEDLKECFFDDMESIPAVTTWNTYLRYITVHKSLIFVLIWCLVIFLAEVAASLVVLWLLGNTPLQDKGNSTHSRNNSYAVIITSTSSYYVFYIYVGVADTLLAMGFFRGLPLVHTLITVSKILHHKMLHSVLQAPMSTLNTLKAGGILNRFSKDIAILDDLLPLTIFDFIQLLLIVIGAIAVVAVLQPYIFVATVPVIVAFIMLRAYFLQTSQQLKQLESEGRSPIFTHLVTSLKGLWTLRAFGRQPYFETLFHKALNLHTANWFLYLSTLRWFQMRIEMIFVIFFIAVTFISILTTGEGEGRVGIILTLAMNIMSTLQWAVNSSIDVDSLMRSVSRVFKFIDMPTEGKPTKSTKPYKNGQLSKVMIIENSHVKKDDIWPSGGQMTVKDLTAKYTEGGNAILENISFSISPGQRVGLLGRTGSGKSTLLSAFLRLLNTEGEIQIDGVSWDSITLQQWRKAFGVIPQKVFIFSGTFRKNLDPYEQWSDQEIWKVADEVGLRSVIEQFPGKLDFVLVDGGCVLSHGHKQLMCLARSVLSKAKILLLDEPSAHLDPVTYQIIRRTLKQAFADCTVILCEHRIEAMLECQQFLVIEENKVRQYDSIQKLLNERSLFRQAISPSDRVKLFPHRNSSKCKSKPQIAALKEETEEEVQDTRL

# Molecule, EC50
data = [
    ("Cc1cccc(C)c1-c1cc2nc(n1)NS(=O)(=O)c1cccc(c1)NC(=O)c1cc(Cl)cc(c1)O2", "< 1 µM"),
    ("Cc1cccc(C)c1-c1cc2nc(n1)NS(=O)(=O)c1cccc(c1)NC(=O)[C@H]1CCC[C@H](C1)O2 (single isomer, unassigned) [Compound 68]", "< 1 µM"),
    ("Cc1cccc(C)c1-c1cc2nc(n1)NS(=O)(=O)c1cccc(c1)NC(=O)[C@@H]1C[C@H](CN(C(=O)OC(C)(C)C)C1)O2 (single isomer, unassigned)", "1 to 3 µM"),
    ("Cc1ccccc1-c1cc2nc(n1)NS(=O)(=O)c1cccc(c1)NC(=O)c1cccc(c1)O2", "< 1 µM"),
]

Can you look up EC50 on F508del in NIH 3T3 cells (Homo sapiens, UniProt P13569, DEL508-508) for Cc1cccc(C)c1-c1cc2nc(n1)NS(=O)(=O)c1cccc(c1)NC(=O)[C@@H]1C[C@@H](CN(C3CCCCC3)C1)O2 ?
< 1 µM

Can you look up EC50 on F508del in NIH 3T3 cells (Homo sapiens, UniProt P13569, DEL508-508) for Cc1ccc2cc1C(=O)Nc1cccc(c1)S(=O)(=O)Nc1nc(cc(-c3c(C)cccc3C)n1)O2 ?
< 1 µM

Can you look up EC50 on F508del in NIH 3T3 cells (Homo sapiens, UniProt P13569, DEL508-508) for COc1ccccc1-c1cc2nc(n1)NS(=O)(=O)c1cccc(c1)NC(=O)c1cccc(c1)O2 ?
1 to 3 µM
